procedureSummary: Cmax in Wistar BRL rat plasma at 24 mg/kg, po by LC-MS/MS analysis
Assay type: ADME, organism-based
Set-up: dose 24 mg/kg, route oral
observedProperty: Cmax (ng/mL)
A number alone suffices; assume ng/mL.

So for `NC(=O)CN1CCN(Cc2nc(-c3cn(CC4CCOCC4)c4c(Cl)cccc34)no2)CC1` , the logged Cmax turned out to be 722

====

procedureSummary: Intrinsic clearance in rabbit liver microsomes
Assay type: ADME, Oryctolagus cuniculus, Microsome
conditionParameters: read-out: CLH
observedProperty: microsomal CLint

So for `NC(=O)CN1CCN(Cc2nc(-c3cn(CC4CCOCC4)c4c(Cl)cccc34)no2)CC1` , the logged microsomal CLint turned out to be < 12 µL/min/mg

====

For each entry below, report its pKi value.
systemUnderTest: Cannabinoid receptor 2 (Homo sapiens)
Sequence (P34972 whole entry): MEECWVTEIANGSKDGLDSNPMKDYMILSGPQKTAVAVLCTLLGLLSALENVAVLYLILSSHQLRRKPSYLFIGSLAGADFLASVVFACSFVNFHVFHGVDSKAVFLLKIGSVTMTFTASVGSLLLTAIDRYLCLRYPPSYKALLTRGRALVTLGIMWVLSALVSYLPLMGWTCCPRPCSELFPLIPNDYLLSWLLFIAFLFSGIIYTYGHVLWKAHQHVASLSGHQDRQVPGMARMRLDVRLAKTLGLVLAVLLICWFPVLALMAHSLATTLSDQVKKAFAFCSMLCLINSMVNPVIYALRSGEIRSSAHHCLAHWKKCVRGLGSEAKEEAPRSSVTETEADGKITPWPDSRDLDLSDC
procedureSummary: Displacement of [3H]CP 55,940 from human CB2 receptor expressed in insect sf9 membranes
Format: cell membranes
Give only the number. pKi is defined as minus log10 of concentration in molar units.

So for `COc1cccc2c(-c3nsc(CN4CCN(CC(N)=O)CC4)n3)cn(CC3CCOCC3)c12` , the logged pKi turned out to be 7.80

So for `O=C(NCCO)C1CCN(Cc2nc(-c3cn(CC4CCOCC4)c4c(Cl)cccc34)no2)CC1` , the logged pKi turned out to be 7.70

So for `NC(=O)CN1CCN(Cc2nc(-c3cn(CC4CCOCC4)c4c(Cl)cccc34)no2)CC1` , the logged pKi turned out to be 7.30

So for `O=C(NCCO)[C@H]1CCCN(Cc2nc(-c3cn(CC4CCS(=O)(=O)CC4)c4c(Cl)cccc34)ns2)C1` , the logged pKi turned out to be 7.70

====

procedureSummary: Apparent permeability across human Caco2 cells
Format: ADME, cell-based
conditionParameters: Caco-2
observedProperty: Papp (×10⁻⁶ cm/s)
A number alone suffices; assume ×10⁻⁶ cm/s.

So for `NC(=O)CN1CCN(Cc2nc(-c3cn(CC4CCOCC4)c4c(Cl)cccc34)no2)CC1` , the logged Papp turned out to be 6.2

====

procedureSummary: Intrinsic clearance in dog liver microsomes
Assay type: ADME, Canis lupus familiaris, Microsome
conditionParameters: read-out: CLH
observedProperty: microsomal CLint (µL/min/mg)
A number alone suffices; assume µL/min/mg.

So for `NC(=O)CN1CCN(Cc2nc(-c3cn(CC4CCOCC4)c4c(Cl)cccc34)no2)CC1` , the logged microsomal CLint turned out to be 13

====

procedureSummary: Intrinsic clearance in human liver microsomes
Assay type: ADME, Microsome
conditionParameters: read-out: CLH
observedProperty: microsomal CLint (µL/min/mg)
A number alone suffices; assume µL/min/mg.

So for `NC(=O)CN1CCN(Cc2nc(-c3cn(CC4CCOCC4)c4c(Cl)cccc34)ns2)CC1` , the logged microsomal CLint turned out to be 23

So for `COc1cccc2c(-c3nsc(CN4CCC(C(=O)NCCO)CC4)n3)cn(CC3CCOCC3)c12` , the logged microsomal CLint turned out to be 19

So for `COc1cccc2c(-c3nsc(CN4CCN(CC(N)=O)CC4)n3)cn(CC3CCOCC3)c12` , the logged microsomal CLint turned out to be 17

So for `NC(=O)CN1CCN(Cc2nc(-c3cn(CC4CCOCC4)c4c(Cl)cccc34)no2)CC1` , the logged microsomal CLint turned out to be 12

So for `O=C(NCCO)C1CCN(Cc2nc(-c3cn(CC4CCOCC4)c4c(Cl)cccc34)no2)CC1` , the logged microsomal CLint turned out to be 16

So for `O=C(NCCO)[C@H]1CCCN(Cc2nc(-c3cn(CC4CCS(=O)(=O)CC4)c4c(Cl)cccc34)ns2)C1` , the logged microsomal CLint turned out to be 47
